- measurement_protocol: in vitro
- condition: rat, gh3-tre-luc cells, AC50 (uM) modified / 1000, Tox21_110001=Tox21_200216; viability, 1 nM T3 present, 24 h
attribute_measured: CC50 at 24 h

>  <compound>
CC(C)NC(C)C [Diisopropylamine]

>  <attribute_measured>
CC50 at 24 h

>  <val>
> 90 µM

$$$$

###

- measurement_protocol: in vitro
- condition: rat, gh3-tre-luc cells, AC50 (uM) modified / 1000, Tox21_110001=Tox21_202098; viability, 1 nM T3 present, 24 h
attribute_measured: CC50 at 24 h

>  <compound>
COc1nc(NC(C)C)nc(NC(C)C)n1 [Prometon]

>  <val>
> 90 µM

$$$$

###

- System: GH3-TRE-Luc cell line
- condition: read-out: AC50 (uM) modified / 1000; Tox21_110001=Tox21_300550; viability, 1 nM T3 present, 24 h

>  <smiles_record>
CO[C@H]1/C=C/O[C@@]2(C)Oc3c(C)c(O)c4c(O)c(c(/C=N/N5CCN(C)CC5)c(O)c4c3C2=O)NC(=O)/C(C)=C\C=C\[C@H](C)[C@H](O)[C@@H](C)[C@@H](O)[C@@H](C)[C@H](OC(C)=O)[C@@H]1C

>  <CC50 (µM)>
32.4

$$$$

###

- System: GH3-TRE-Luc cell line
- condition: read-out: AC50 (uM) modified / 1000; Tox21_110001=Tox21_200568; viability, 1 nM T3 present, 24 h

>  <compound>
Cc1c(C)c2c(c(C)c1OC(=O)CCC(=O)O)CC[C@@](C)(CCC[C@H](C)CCC[C@H](C)CCCC(C)C)O2 [d-alpha-Tocopheryl succinate]

>  <CC50>
20 µM

$$$$

###

- Tested on: GH3-TRE-Luc cell line
- condition: read-out: AC50 (uM) modified / 1000; Tox21_110001=Tox21_300671; viability, 1 nM T3 present, 24 h
attribute_measured: CC50 (µM)

>  <compound>
CC(C)N(C(=O)SCC(Cl)=C(Cl)Cl)C(C)C [Tri-allate]

>  <attribute_measured>
CC50

>  <val>
53.5

$$$$

###

- Tested on: GH3-TRE-Luc cell line
- condition: read-out: AC50 (uM) modified / 1000; Tox21_110001=Tox21_201102; viability, 1 nM T3 present, 24 h

>  <molecule>
C=C(CC)C(=O)c1ccc(OCC(=O)O)c(Cl)c1Cl [Ethacrynic acid]

>  <study_target>
GH3-TRE-Luc cell line

>  <CC50, µM>
65.9

$$$$

###

- measurement_protocol: in vitro
- condition: rat, gh3-tre-luc cells, AC50 (uM) modified / 1000, Tox21_110001=Tox21_201325; viability, 1 nM T3 present, 24 h

>  <molecule>
O=c1[nH]c2ccccc2c(=O)o1 [2H-3,1-Benzoxazine-2,4(1H)-dione]

>  <CC50 at 24 h>
> 90 µM

$$$$

###

- measurement_protocol: in vitro
- Set-up: species or system GH3-TRE-Luc (rat pituitary); CellTiter-Fluor viability run in parallel with antagonist mode (1 nM T3), loss of viability
- condition: rat, gh3-tre-luc cells, AC50 (uM) modified / 1000, Tox21_110001=Tox21_301063, viability, 1 nM T3 present

>  <smiles_record>
CCOP(=O)(OCC)Oc1nc(Cl)c(Cl)cc1Cl

>  <CC50 at 24 h (µM)>
60.1

$$$$

###

- System: GH3-TRE-Luc cell line
- condition: read-out: AC50 (uM) modified / 1000; Tox21_110001=Tox21_300121; viability, 1 nM T3 present, 24 h

>  <smiles_record>
CC(C)(C)c1cc(C(C)(C)C)c(O)c(C(C)(C)C)c1

>  <study_target>
GH3-TRE-Luc cell line

>  <CC50, µM>
28.2

$$$$

###

- measurement_protocol: in vitro
- condition: rat, gh3-tre-luc cells, AC50 (uM) modified / 1000, Tox21_110001=Tox21_112370; viability, 1 nM T3 present, 24 h

>  <smiles_record>
OC[C@@H](O)[C@H]1O[C@@H]2O[C@@H](C(Cl)(Cl)Cl)O[C@@H]2[C@H]1O

>  <CC50 at 24 h>
> 50 µM

$$$$

###

- measurement_protocol: in vitro
- condition: rat, gh3-tre-luc cells, AC50 (uM) modified / 1000, Tox21_110001=Tox21_301477; viability, 1 nM T3 present, 24 h

>  <smiles_record>
N#Cc1ccc(Cl)cc1

>  <CC50 at 24 h>
> 90 µM

$$$$

###

- measurement_protocol: in vitro
- condition: rat, gh3-tre-luc cells, AC50 (uM) modified / 1000, Tox21_110001=Tox21_200189; viability, 1 nM T3 present, 24 h

>  <molecule>
BrC(Br)Br [Bromoform]

>  <CC50 at 24 h>
> 90 µM

$$$$

###

- study_target: TRα ligand-binding domain (Homo sapiens)
- Construct: the receptor LBDs expressed as glutathione S-transferase (GST) fusion proteins; purchased
- Sequence (P10827 163-410 isoform P10827-2 limits assumed, other chains not shown): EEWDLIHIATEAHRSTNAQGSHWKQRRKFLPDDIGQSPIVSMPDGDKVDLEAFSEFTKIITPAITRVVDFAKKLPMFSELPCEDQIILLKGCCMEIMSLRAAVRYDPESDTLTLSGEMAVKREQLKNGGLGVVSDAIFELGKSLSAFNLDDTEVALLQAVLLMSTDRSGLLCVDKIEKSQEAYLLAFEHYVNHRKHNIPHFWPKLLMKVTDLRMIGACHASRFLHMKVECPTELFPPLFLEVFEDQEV
- measurement_protocol: TRa-coa LanthaScreen TR-FRET coactivator (SRC-2 peptide) recruitment, agonist (TOX21_TRA_COA_Agonist_Followup_ratio, aeid 2230)
- Type: biochemical
- condition: read-out: EMax (% of Control) tra-coa-agonist-followup-1
Quick reference for Emax among some compounds

>  <compound>
O=c1[nH]cnc2c1ncn2[C@H]1CC[C@@H](CO)O1

>  <study_target>
TRα ligand-binding domain (Homo sapiens)

>  <Emax [%]>
-0.5

$$$$
>  <compound>
O=C(O)Cc1cc(I)c(Oc2cc(I)c(O)c(I)c2)c(I)c1

>  <study_target>
TRα ligand-binding domain (Homo sapiens)

>  <Emax [%]>
153

$$$$
>  <compound>
Cc1cccc(C)c1[N+](=O)[O-]

>  <study_target>
TRα ligand-binding domain (Homo sapiens)

>  <Emax [%]>
-0.13

$$$$
>  <compound>
CN(C)c1ccc(N=O)cc1

>  <study_target>
TRα ligand-binding domain (Homo sapiens)

>  <Emax [%]>
-0.217

$$$$
>  <compound>
COc1cc(C)c(/C=C/C(C)=C/C=C/C(C)=C/C(=O)O)c(C)c1C [Acitretin, reference compound]

>  <study_target>
TRα ligand-binding domain (Homo sapiens)

>  <Emax [%]>
3.4

$$$$

###

- measurement_protocol: in vitro
- condition: rat, gh3-tre-luc cells, AC50 (uM) modified / 1000, Tox21_110001=Tox21_111448; viability, 1 nM T3 present, 24 h
Where a name gives a salt, the structure may show the parent alone.

>  <compound>
CC(C)CC(N(C)C)C1(c2ccc(Cl)cc2)CCC1 (stereo not shown) [Sibutramine hydrochloride]

>  <CC50 at 24 h>
> 50 µM

$$$$

###

- measurement_protocol: in vitro
- condition: rat, gh3-tre-luc cells, AC50 (uM) modified / 1000, Tox21_110001=Tox21_303401; viability, 1 nM T3 present, 24 h
attribute_measured: CC50 at 24 h

>  <molecule>
O=P(O)(Oc1ccccc1)Oc1ccccc1 [Diphenyl phosphate]

>  <attribute_measured>
CC50 at 24 h

>  <val>
> 90 µM

$$$$

###

- System: GH3-TRE-Luc cell line
- condition: read-out: AC50 (uM) modified / 1000; Tox21_110001=Tox21_112078; viability, 1 nM T3 present, 24 h

>  <smiles_record>
O=C(Nc1ccc(Cl)cc1)Nc1ccc(Cl)c(Cl)c1

>  <CC50, µM>
3.75

$$$$

###

- measurement_protocol: in vitro
- condition: rat, gh3-tre-luc cells, AC50 (uM) modified / 1000, Tox21_110001=Tox21_200953; viability, 1 nM T3 present, 24 h

>  <smiles_record>
O=[N+]([O-])c1cccc2c([N+](=O)[O-])cccc12

>  <CC50 at 24 h>
> 90 µM

$$$$

###

- measurement_protocol: in vitro
- condition: rat, gh3-tre-luc cells, AC50 (uM) modified / 1000, Tox21_110001=Tox21_200660; viability, 1 nM T3 present, 24 h

>  <molecule>
C[N+](C)(C)C [Tetramethylammonium chloride]

>  <CC50 at 24 h>
> 90 µM

$$$$

###

- Test system: GH3-TRE-Luc cell line
- condition: read-out: AC50 (uM) modified / 1000; Tox21_110001=Tox21_302352; viability, 1 nM T3 present, 24 h
attribute_measured: CC50

>  <compound>
Clc1ccc2c(c1)C(N1CCNCC1)=Nc1ccccc1O2 [Amoxapine]

>  <val>
20.3 µM

$$$$

###

- System: GH3-TRE-Luc cell line
- condition: read-out: AC50 (uM) modified / 1000; Tox21_110001=Tox21_110161; viability, 1 nM T3 present, 24 h

>  <smiles_record>
O=c1c(-c2ccc(O)cc2)coc2cc(O)cc(O)c12

>  <CC50, µM>
24.6

$$$$
